Biological target: FLuc-C-NLuc (firefly luciferase) (Photinus pyralis, UniProt P08659, form not given/L550V)
Sequence (P08659 2-550 L550V, form open): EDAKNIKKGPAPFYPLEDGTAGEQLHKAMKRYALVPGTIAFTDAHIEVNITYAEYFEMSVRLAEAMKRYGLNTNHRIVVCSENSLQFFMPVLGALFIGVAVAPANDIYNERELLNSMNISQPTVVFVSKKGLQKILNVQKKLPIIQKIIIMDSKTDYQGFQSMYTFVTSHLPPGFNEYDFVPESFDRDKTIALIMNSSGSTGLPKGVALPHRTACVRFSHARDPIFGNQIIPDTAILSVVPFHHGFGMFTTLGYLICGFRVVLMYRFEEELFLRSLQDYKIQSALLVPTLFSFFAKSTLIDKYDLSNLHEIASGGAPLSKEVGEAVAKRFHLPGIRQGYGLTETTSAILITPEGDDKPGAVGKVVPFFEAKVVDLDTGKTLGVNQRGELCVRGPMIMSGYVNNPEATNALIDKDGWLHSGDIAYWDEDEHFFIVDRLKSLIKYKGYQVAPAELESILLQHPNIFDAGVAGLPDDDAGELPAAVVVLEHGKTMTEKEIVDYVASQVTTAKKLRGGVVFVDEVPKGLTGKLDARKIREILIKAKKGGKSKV
Experiment: SDR assay, FLuc-C-NLuc
Conditions: Log[Compound], M -5.44; 10 mM ATP
Classification field: enter criterion met for SDR+ATP values not below 50, criterion not met for values below it.

Worked cases, answers included:
INPUT: For this compound, is measured SDR+ATP 50 or higher? O=C(Nc1cccc(F)c1)C1CCN(C(=O)c2ncn3c2COC(c2ccccc2)C3)CC1 (centres unmarked)
OUTPUT: criterion met

INPUT: For this compound, is measured SDR+ATP 50 or higher? CC(NC(=O)C1CCN(C(=O)c2ncn3c2COC(c2ccc(F)cc2)C3)CC1)c1ccc(F)cc1 (centres unmarked)
OUTPUT: criterion not met

INPUT: For this compound, is measured SDR+ATP 50 or higher? CC(CNC(=O)C1CCN(C(=O)c2ncn3c2COC(c2ccccc2)C3)CC1)c1ccccc1 (centres unmarked)
OUTPUT: criterion met

INPUT: For this compound, is measured SDR+ATP 50 or higher? CC1CCC(NC(=O)C2CCN(C(=O)c3ncn4c3COC(c3ccc(Cl)cc3)C4)CC2)CC1 (centres unmarked)
OUTPUT: criterion not met

Consider the additional compound presented here.
INPUT: For this compound, is measured SDR+ATP 50 or higher? COc1ccc(NC(=O)C2CCN(C(=O)c3ncn4c3COC(c3ccccc3)C4)CC2)cc1Cl (centres unmarked)
OUTPUT: criterion met
